Here, each record is paired with measured melting point data.
outcome.measure: melting point

>>> experimental_value("O=C1Nc2ccc(F)cc2C1=Cc1ccc(OCc2ccncc2)cc1 (mixture of isomers)")
"233 to 235 °C"
>>> experimental_value("O=C1Nc2ccc(Cl)cc2C1=Cc1ccc(OCc2ccncc2)cc1 (mixture of isomers)")
"238 to 240 °C"
>>> experimental_value("O=C1Nc2ccc(Cl)cc2C1=Cc1ccc(OCc2ccccc2)cc1 (mixture of isomers)")
"214 to 216 °C"
>>> experimental_value("O=C1Nc2ccccc2C1=Cc1ccc(OCc2ccncc2)cc1 (mixture of isomers)")
"238 to 240 °C"
>>> experimental_value("O=C1Nc2cc(Cl)ccc2C1=Cc1ccc(OCc2ccncc2)cc1 (mixture of isomers)")
"233 to 235 °C"
>>> experimental_value("O=C1Nc2ccc(F)cc2C1=Cc1ccc(OCc2ccccc2)cc1 (mixture of isomers)")
"244 to 248 °C"
